Target: T1, Extracellular domain of human ROR1 protein (ROR1-ECD) (human, UniProt Q01973 30-403)
T1 construct: Expressed in HEK293T cells; also called human ROR1-ECD; purified human ROR1 protein extracellular segment
T1 sequence (Q01973 other isoform, or with tags, fused parts or gaps): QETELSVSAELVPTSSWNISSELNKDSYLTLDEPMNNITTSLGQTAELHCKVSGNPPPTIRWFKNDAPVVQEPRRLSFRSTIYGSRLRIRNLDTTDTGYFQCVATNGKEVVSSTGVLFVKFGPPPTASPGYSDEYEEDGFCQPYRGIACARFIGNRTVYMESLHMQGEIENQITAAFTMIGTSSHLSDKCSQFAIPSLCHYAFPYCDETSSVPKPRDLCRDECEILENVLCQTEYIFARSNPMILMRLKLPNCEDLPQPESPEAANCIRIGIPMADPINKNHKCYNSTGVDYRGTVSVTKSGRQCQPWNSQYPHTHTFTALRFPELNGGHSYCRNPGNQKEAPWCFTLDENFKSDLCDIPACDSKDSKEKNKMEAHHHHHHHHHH
Assay: ELISA, plate-coated ROR1-ECD
Catalogue of EC50 readings, one per entry.
The reply should be a number in nM, with the unit left off.

Look over these answered cases.
binder	EC50 (nM)
mAb005c (antibody, V domains shown, Human-mouse chimeric) VH: EVQLVESGGGLVKPGGSLKLSCAASGFTFNSYAMSWVRQTPEKRLEWVATISDGGSYTYYPDNEKGRFTISRDNAKNNLYLQMSHLKSEDTAIYYCVRGGYYYNLYAMDYWGQGTSVTVSS VL: DIVLTQSPASLAVSLGQRAIISCKASQSVSFPGTSLMHWYQQKPGQQPKLLIYRASNLEAGVPTRFSGSGSRTDFTLNIHPVEEDDTATYYCQQSREYPWTFGGGTQLEIK	0.009
mAb001c (antibody, V domains shown, Human-mouse chimeric; also called human-mouse chimeric antibody mAb001c) VH: EVRLQQSGPVLVKPGASVKMSCKASGYTFTDYNLHWVKQSHRQSLEWIGYINPNHDGTSYNQKFQGKATLTVDRSSSTAYMEFRSLTSEDSAVYYCARRVRTGTGLDDWGQGTTLTVSS VL: DVLMTQSPLSLPVSLGDQASISCRSSHNIVHTNGNTYLEWYLQKPGQSPKLLIYKVSNRFSGVPDRFSGSGSGTYFTLTISRVEAEDLGVYYCFQGSRFPYTFGGGTKLEIK	0.012
mAb004c (antibody, V domains shown, Human-mouse chimeric) VH: EVQLVESGGGLVQPKGSLKLSCAASGFTFNTYAMHWVRQAPGKGLEWVARIRSKSSNFATYYADSVRDRFTISRDDSQSMLYLQMNNLKTEDTAMYYCVRGYGPSYFSLDYWGQGTSVTVSS VL: DVVMTQTPLSLPVSLGDQASISCRSSQSLVHSNGNTYLHWYLQKPGQSPKLLIYKVSNRFSGVPDRFSGSGSGTDFTLKINRVEAEDLGVYFCSQSTHAIYTFGGGTKLEIK	0.012

Proceed to the following item.
Form: binder = UC-961 (antibody, V domains shown, Control antibody of US20150232569A1, made with human IgG1 heavy chain constant region and Kappa chain constant region) VH: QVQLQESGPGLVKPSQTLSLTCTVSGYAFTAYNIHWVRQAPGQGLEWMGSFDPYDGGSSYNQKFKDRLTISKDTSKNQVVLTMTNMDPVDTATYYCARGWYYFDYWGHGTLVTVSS VL: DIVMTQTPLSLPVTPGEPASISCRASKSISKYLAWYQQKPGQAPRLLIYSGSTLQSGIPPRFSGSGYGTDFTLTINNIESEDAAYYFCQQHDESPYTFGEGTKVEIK ; EC50 = 0.013
